test system: ddY strain male mice; assay: Acute toxicity, minimum lethal dose; type: in vivo; details: i.p.; mortality for 7 days
Readout type: MLD (Minimum Lethal Dose) (mg/kg)
The answer is to be given in mg/kg; state only the numeric part.

1. CC(C)Oc1cc(C(=O)O[C@H]2C[C@H]3CC[C@@H](C2)N3C)c2ccccc2n1 [Compound 3Sa]
200
2. CCOc1cc(C(=O)O[C@H]2C[C@H]3CC[C@@H](C2)N3C)c2ccccc2n1 [Compound 10Sa]
100
3. CCCCOc1cc(C(=O)O[C@H]2C[C@H]3CC[C@@H](C2)N3C)c2ccccc2n1 [Compound 1Sa]
200

Briefly, MLD (Minimum Lethal Dose) measured for CC(C)COc1cc(C(=O)O[C@H]2C[C@H]3CC[C@@H](C2)N3C)c2ccccc2n1 [Compound 7Sa] : 300

Sourced from patent US5319085A
